experiment: basal HepG2 mitochondrial membrane potential changes, profiling panel, cell-based, JC-1 fluorescence, 24 h, 100 nL compound (AID 1167); details: higher = more signal; further: test concentration not given here
Each entry below lists one item and its recorded z-score value.
MEASURED_ENDPOINT: z-score

>  <COMPOUND>
COCCNC(=O)OCC1CCCC2(CC(OC(=O)NCCc3ccc(F)cc3)CC(CCC(=O)N[C@@H](C)C(=O)OC)O2)O1 (stereo not given in full)

>  <MEASURED_ENDPOINT>
z-score

>  <VALUE>
-0.198

$$$$
>  <COMPOUND>
CC(C)CON=C1[C@H]2CCn3c(=O)n(-c4ccccc4)c(=O)n3[C@H]2[C@H](O)[C@@H]2O[C@H]12

>  <MEASURED_ENDPOINT>
z-score

>  <VALUE>
-0.174

$$$$
>  <COMPOUND>
COC(=O)C1=C(C)N(Cc2ccccc2)[C@]23O[C@](C(=O)OC)(C(=O)N2[C@@H]1c1ccccc1)[C@H]1CCOC(=O)[C@H]13

>  <MEASURED_ENDPOINT>
z-score

>  <VALUE>
0.74

$$$$
>  <COMPOUND>
CN1C(=O)C2C=CC(C(O)c3ccc(I)cc3)N(NC(=O)OC(C)(C)C)C2C1=O (stereo not given)

>  <MEASURED_ENDPOINT>
z-score

>  <VALUE>
-1.56

$$$$
>  <COMPOUND>
CO[C@H]1COC(=O)[C@H](C)COC(=O)CC=C[C@@H](C)[C@H](OC)COC(=O)CC=C[C@@H]1C

>  <MEASURED_ENDPOINT>
z-score

>  <VALUE>
0.69

$$$$
>  <COMPOUND>
O=C1C[C@]2(c3ccc([N+](=O)[O-])cc3)C(=O)N(CCN3CCOCC3)c3cc(CO)ccc3[C@H]2N1CC12CC3CC(CC(C3)C1)C2

>  <MEASURED_ENDPOINT>
z-score

>  <VALUE>
-0.141

$$$$
>  <COMPOUND>
COCCCNC(=O)[C@]1(Cc2ccccc2)N=C(c2ccc(OCCCO)cc2)O[C@@H]1c1ccccc1

>  <MEASURED_ENDPOINT>
z-score

>  <VALUE>
-0.175

$$$$
>  <COMPOUND>
COc1ccc(O[C@H]2C=C[C@@H](c3ccccc3)O[C@@H]2COC(=O)CCC(C)=NO[C@H](C)c2cn([C@@H]3COC[C@H]3O)nn2)cc1

>  <MEASURED_ENDPOINT>
z-score

>  <VALUE>
-1.63

$$$$
>  <COMPOUND>
CC(C)CN1CCc2nc(-c3ccccc3)c3c(c2CC1)CO[C@@H](C)C3

>  <MEASURED_ENDPOINT>
z-score

>  <VALUE>
0.93

$$$$
>  <COMPOUND>
CCN1C(=O)[C@H]2[C@H]3[C@H](O)[C@H](O)CC(=NOCc4ccccc4)[C@@H]3CC[C@H]2C1=O

>  <MEASURED_ENDPOINT>
z-score

>  <VALUE>
0.402

$$$$
>  <COMPOUND>
C[C@H]1Cc2c(-c3ccccc3)nc3c(c2CO1)CN(CCOc1ccccc1)CC3

>  <MEASURED_ENDPOINT>
z-score

>  <VALUE>
0.932

$$$$
>  <COMPOUND>
CC[C@@H](c1ccccc1)n1c(=O)n2n(c1=O)[C@H]1[C@H](O)[C@@H]3O[C@@H]3C(=NOCC(C)C)[C@H]1CC2

>  <MEASURED_ENDPOINT>
z-score

>  <VALUE>
-1.16

$$$$
>  <COMPOUND>
COCCOC(=O)N1C(=O)[C@@]2(c3ccccc31)[C@H](C(N)=O)[C@H]1C(=O)O[C@H](c3ccccc3)[C@H](c3ccccc3)N1[C@@H]2c1ccccc1OCCO

>  <MEASURED_ENDPOINT>
z-score

>  <VALUE>
-0.728

$$$$
>  <COMPOUND>
CC(C)[C@@H](OCc1ccccc1)[C@H](C)C=NOC[C@@H](C)[C@H](OCc1ccccc1)C(C)C

>  <MEASURED_ENDPOINT>
z-score

>  <VALUE>
-0.245

$$$$
>  <COMPOUND>
COC(=O)[C@@]1(Cc2ccc(F)cc2)[C@@H]2C(=CC(=O)[C@H]2CC(=O)C(=O)N(C)C)CN1C(=O)c1ccccc1

>  <MEASURED_ENDPOINT>
z-score

>  <VALUE>
2.62

$$$$

----------
Each entry below lists one item and its recorded z-score value.
test: MM1S cell viability effects, profiling panel, calcein-AM fluorescence, 48 h, basal (AID 1165); conditions: higher = more signal;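 further: viability of MM1S multiple myeloma cells under basal unstimulated conditions; test concentration not given here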

>  <MOLECULE>
CC(C)[C@H](NC(=O)OC(C)(C)C)[C@@H](O)CC(=O)OC(C)(C)C

>  <z-score>
0.793

$$$$
>  <MOLECULE>
COC(=O)CC=C[C@@H](C)[C@@H](C=NO[C@@H](C)c1cc(-c2c(C)cc(C)cc2C)no1)OC

>  <z-score>
0.0635

$$$$
>  <MOLECULE>
C=C(/C(=C/C[C@H](OC(C)=O)c1ccc(OCCO)cc1)c1cnc2ccccc2c1)C(C)C

>  <z-score>
-0.753

$$$$
>  <MOLECULE>
CC(C)=C1C(=O)C(c2ccccc2)=C2CN3C(=O)N(CCc4ccccc4)C(=O)[C@]3(Cc3ccc(F)cc3)[C@H]21

>  <z-score>
-0.871

$$$$
>  <MOLECULE>
COC(=O)[C@@]1(Cc2ccc(F)cc2)[C@@H]2C(=CC(=O)[C@H]2CC(=O)C(=O)N(C)C)CN1C(=O)c1ccccc1

>  <z-score>
-1.24

$$$$
>  <MOLECULE>
C[C@@H]1CC[C@H]2C(=O)O[C@H](COc3ccc(C(C)(C)C)cc3)CN2[C@H]1c1ccc(Br)cc1

>  <z-score>
-0.232

$$$$
>  <MOLECULE>
COc1cccc([C@@H]2Oc3ccc(Br)cc3C(=O)[C@H]2O)c1

>  <z-score>
-3.44

$$$$
>  <MOLECULE>
CC(C)=NOCc1ccc(-c2cc(-c3ccccc3)no2)cc1

>  <z-score>
0.283

$$$$
>  <MOLECULE>
CCCNC(=O)[C@@H]1c2ccccc2C(=O)N(c2ccc(C)cn2)[C@H]1c1ccc(CO)cc1

>  <z-score>
-0.336

$$$$
>  <MOLECULE>
O=C1[C@H]2[C@H]3[C@H](O)[C@H](O)CC(=NOC[C@@H](O)COCc4ccco4)[C@@H]3CC[C@H]2C(=O)N1c1ccc(F)cc1F

>  <z-score>
0.136

$$$$
>  <MOLECULE>
CC1(C)OCC(C(O)C2=CCCCC2=O)CO1 (configuration not stated)

>  <z-score>
-0.402

$$$$
>  <MOLECULE>
COc1ccc([Si](C)(C)[C@H]2[C@H](CCO)O[C@@]3(C(=O)N(Cc4cccc(NC(=O)[C@H](C)O)c4)c4ccccc43)[C@@H]2C)cc1

>  <z-score>
-2.63

$$$$
>  <MOLECULE>
COCCCNC(=O)[C@@]1(Sc2ccc(C)cc2)CC(=O)N(Cc2ccccc2)[C@@H]1c1ccc(CO)cc1I

>  <z-score>
-2.37

$$$$
>  <MOLECULE>
CCCC[C@@H]1C[C@H]1[C@@H](NS(=O)(=O)c1cccc2cccnc12)c1ccc(-c2ccccc2)cc1

>  <z-score>
0.252

$$$$
>  <MOLECULE>
CC(C)N1CC=CC23O[C@@H]4C=CCCOC(=O)C4[C@H]2C(=O)N(CCCCCCO)[C@@H]3C1=O (some centres not stated)

>  <z-score>
0.585

$$$$
>  <MOLECULE>
CC(C)NC(=O)[C@@H]1c2ccccc2C(=O)N(CC23CC4CC(CC(C4)C2)C3)[C@H]1c1ccc(CO)cc1

>  <z-score>
-0.0705

$$$$
>  <MOLECULE>
CC(C)C[C@@H]1NC(=O)[C@H]2C[C@@H](C(=O)O)[C@@H](c3ccc(O)cc3)N2C1=O

>  <z-score>
-2.7

$$$$
>  <MOLECULE>
O=C1CCCC=C1C(O)CCOCc1ccccc1 (configuration not stated)

>  <z-score>
-1.42

$$$$
>  <MOLECULE>
COC(=O)[C@H](C)NC(=O)CCC1CC(OC(=O)NCCc2ccc(F)cc2)CC2(CCCC(COC(=O)NCCc3ccc(Cl)cc3)O2)O1 (some centres not stated)

>  <z-score>
-1.14

$$$$
>  <MOLECULE>
COC(=O)[C@@]1(Cc2ccc(F)cc2)[C@H]2c3cc(C(=O)N(C)C)n(Cc4ccc(OC)c(OC)c4)c3C[C@H]2CN1C(=O)c1ccccc1

>  <z-score>
-1.13

$$$$
>  <MOLECULE>
CC(=O)OC[C@H]1O[C@@H](ON=C[C@@H](C)[C@H](OCc2ccccc2)C(C)C)[C@H](OC(C)=O)[C@@H](OC(C)=O)[C@@H]1OC(C)=O

>  <z-score>
0.614

$$$$
>  <MOLECULE>
CC(CCN1CCc2nc(-c3ccccc3)c(-c3ccccc3)cc2C1)=NO[C@@H](C)c1cn([C@H](CO)Cc2ccccc2)nn1

>  <z-score>
-0.352

$$$$
>  <MOLECULE>
C#CCCCON=C1C[C@@H](O)[C@@H](O)[C@@H]2[C@@H]3C(=O)N(c4cccc(Oc5ccccc5)c4)C(=O)[C@@H]3CC[C@@H]12

>  <z-score>
-0.399

$$$$
>  <MOLECULE>
O[C@@H](Cc1ccccc1)[C@H]1C2C=CCCC(c3ccccc3)=C2CN1Cc1cccc(Cl)c1 (some centres not stated)

>  <z-score>
-3.27

$$$$
>  <MOLECULE>
CCOC(=O)[C@H](Cc1ccccc1)NC(=O)CCC1CC(OC(=O)NCc2ccc3c(c2)OCO3)CC2(CCCC(COC(=O)NCC3CCCCC3)O2)O1 (some centres not stated)

>  <z-score>
-2.06

$$$$
>  <MOLECULE>
C=C(CCCC)C(=O)CC[C@@H](OC(C)=O)c1cccc(OCCO)c1

>  <z-score>
-2.53

$$$$
>  <MOLECULE>
CN1C(=O)C2C=CC(C(O)C(c3ccccc3)c3ccccc3)N(NC(=O)OC(C)(C)C)C2C1=O (configuration not stated)

>  <z-score>
-2.47

$$$$
>  <MOLECULE>
O=C1C2C=CC(C(O)c3ccc([N+](=O)[O-])cc3)N(Nc3ccc([N+](=O)[O-])cc3)C2C(=O)N1c1ccccc1 (configuration not stated)

>  <z-score>
-0.0432

$$$$
>  <MOLECULE>
C[C@H]1CC[C@@H](C(=O)O)N[C@@H]1c1ccc(C#CCN(C)C)cc1

>  <z-score>
0.601

$$$$
>  <MOLECULE>
COCCOC(=O)N1C(=O)[C@@]2(c3cc(C#Cc4ccc(OC)cc4)ccc31)[C@H](c1ccc(O)cc1)N1[C@H](c3ccccc3)[C@H](c3ccccc3)OC(=O)[C@H]1[C@@H]2C(N)=O

>  <z-score>
-2.08

$$$$
>  <MOLECULE>
CS(=O)(=O)CCOC(=O)C1=CC(CCCO)=CC(c2cccs2)N(Cc2cccc(OC(F)(F)F)c2)C=C1C(=O)OCCS(C)(=O)=O (configuration not stated)

>  <z-score>
-3.28

$$$$
>  <MOLECULE>
CCCCCN1CC=CC23O[C@@H]4C=CCOC(=O)[C@@H]4[C@H]2C(=O)N(C(CO)C(C)C)[C@@H]3C1=O (some centres not stated)

>  <z-score>
0.949

$$$$
